# TEST_DESCRIPTION: Plasma concentration in PET study
# Assay type: in vivo
# CONDITIONS: human, subject 11010, 40 mg, 3.75 h prior to scan
MEASUREMENT_LABEL: concentration at 3.75 h (ng/mL)
The reply should be a number in ng/mL, with the unit left off.

IN: Consider the compound shown here: Cc1onc(-c2ccc(F)cc2)c1COc1ccc(C(=O)N2CCS(=O)(=O)CC2)cn1 [basmisanil] What is its recorded concentration at 3.75 h?
OUT: 592

###

# TEST_DESCRIPTION: Pharmacokinetics, single intravenous dosing
# Assay type: in vivo
# CONDITIONS: Wistar, rat, plasma, 4.3 mg/kg i.v., 2 male, read-out: Vss
MEASUREMENT_LABEL: Vd (L/kg)
Field: numeric (L/kg). Do not append units.

IN: Give its Vd value. Item: `Cc1onc(-c2ccc(F)cc2)c1COc1ccc(C(=O)N2CCS(=O)(=O)CC2)cn1`
OUT: 2.9
